B1: Gamma-crystallin C, residues 4 to 79; numbered along this chain, P07315 (parent)
chain: ITFYEDRAFQGRSYETTTDCPNLQPYFSRCNSIRVESGCWMLYERPNYQGQQYLLRRGEYPDYQQWMGLSDSIRSC

# Variants of: B1
# ASSAY_REMARKS: abundance fitness (aPCA) (normalised: wild type 0, dead -1); higher = more abundant; growth selection in yeast, the domain comes from the species named
# RUN_PARAMETERS: Homo sapiens
abundance fitness below -0.06 gives 0; abundance fitness at or above it gives 1.

A selection of reference data follows.
{"columns": ["SEQUENCE_CHANGE", "GROUP_LABEL"],
 "data": [
  ["N22A", 1],
  ["G38P", 0],
  ["T18G", 1]
]}

Task item: Quick check: does G50R have abundance fitness greater than or equal to -0.06?
Reply: 0

Task item: Could you please find out whether N22T has abundance fitness that meets -0.06 or exceeds it?
Reply: 1

Task item: Determine whether measured abundance fitness meets or exceeds -0.06 for Y14V
Reply: 0

Task item: Confirm if abundance fitness reported for the variant D71K is -0.06 or above.
Reply: 1

Task item: Textbook exercise: given the entry Y63H , state whether its abundance fitness is greater than or equal to -0.06.
Reply: 0

Source listed as the Human Domainome abundance scans (Beltran et al. 2025).
